Answer each item with its documented viability.
Test: reducers of endogenous Her2 protein level, primary screen, SKBR3 breast tumor cells, AlphaScreen, ATP viability (AID 461);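 note: percent of carrier control wells set as 100% viability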
Settings: 18-24 h, measured here: SKBR3 viability, ATP luminescence, at 10 µM
# output: bare number, implied unit %

Query: So what's the measured viability for this one? O=S(=O)(c1ccc(OCC(O)CN2CCc3ccccc3C2)cc1)N1CCOCC1 (stereo unspecified)
Reply: 89

Query: So what's the measured viability for this one? CCOc1cc(NC(=O)c2ccco2)c(OCC)cc1NC(=O)CCc1ccc(OC)cc1
Reply: 89

Query: So what's the measured viability for this one? COc1ccc(C2=NOC(C(=O)Nc3cc(Br)ccc3O)C2)cc1OC (stereo unspecified)
Reply: 108

Query: So what's the measured viability for this one? CCOC(=O)/C=C(\C)Sc1cc(=O)oc2ccccc12
Reply: 94.5

Query: So what's the measured viability for this one? CC(=O)Nc1ccc(-c2nn[nH]n2)cc1Cl
Reply: 87

Query: So what's the measured viability for this one? CCCN1C(=O)c2cc(C(=O)O)ccc2C1O (stereo unspecified)
Reply: 113

Query: So what's the measured viability for this one? Cc1ccnc(N2CCN(C(=O)CSc3nc4ccccc4nc3N3CCCCC3)CC2)c1
Reply: 109

Query: So what's the measured viability for this one? O=c1c[n+]([O-])c2ccccc2n1OCc1ccccn1
Reply: 94

Query: So what's the measured viability for this one? CCOc1ccccc1Nc1nnc(SCC(=O)N2CCCC2)s1
Reply: 104

Query: So what's the measured viability for this one? CC(=O)c1c(C)[nH]c(C(=O)OCc2nnc(-c3ccccc3)o2)c1C
Reply: 92

Query: So what's the measured viability for this one? Cc1ccccc1OCc1nnc(SCC(=O)NCc2ccccc2)n1C
Reply: 96

FYI, the data here is from PubChem BioAssay.
